Biological target: T1, recombinant human CD63 extracellular loop 2 expressed with a C-terminal human Fc tag (human)
T1 construct: also called hCD63 EC loop 2-hFc; human CD63 EC loop 2-Fc
T1 sequence (chain, as listed by the source limits assumed): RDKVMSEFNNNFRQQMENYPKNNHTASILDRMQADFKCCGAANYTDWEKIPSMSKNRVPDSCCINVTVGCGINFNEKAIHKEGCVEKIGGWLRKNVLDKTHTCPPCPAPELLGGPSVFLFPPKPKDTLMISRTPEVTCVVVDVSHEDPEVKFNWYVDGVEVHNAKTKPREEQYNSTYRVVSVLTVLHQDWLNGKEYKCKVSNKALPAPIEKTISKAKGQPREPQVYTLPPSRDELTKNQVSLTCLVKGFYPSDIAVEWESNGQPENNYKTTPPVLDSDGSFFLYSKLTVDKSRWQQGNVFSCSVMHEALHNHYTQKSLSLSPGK
Test: SPR Biacore, mAb captured, 25C
quantity-measured: t1/2 (min)
Form entry: value (min) — number only.

Data request: For the binder H2M12450N (antibody, V domains shown, also called H2aM12450N; mAb12450) VH: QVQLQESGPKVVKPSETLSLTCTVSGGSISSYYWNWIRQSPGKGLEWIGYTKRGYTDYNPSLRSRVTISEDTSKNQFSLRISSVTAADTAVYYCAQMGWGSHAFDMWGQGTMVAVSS VL: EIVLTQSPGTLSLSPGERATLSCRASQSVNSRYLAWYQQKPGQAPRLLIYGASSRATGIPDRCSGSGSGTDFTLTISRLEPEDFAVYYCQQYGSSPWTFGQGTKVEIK , give its reported t1/2.
Data returned: 248

Data request: For the binder H2M12452N (antibody, V domains shown, also called H2aM12452N) VH: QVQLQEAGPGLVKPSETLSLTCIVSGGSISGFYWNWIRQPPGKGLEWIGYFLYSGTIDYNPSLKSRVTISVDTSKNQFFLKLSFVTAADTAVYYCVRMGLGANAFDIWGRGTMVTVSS VL: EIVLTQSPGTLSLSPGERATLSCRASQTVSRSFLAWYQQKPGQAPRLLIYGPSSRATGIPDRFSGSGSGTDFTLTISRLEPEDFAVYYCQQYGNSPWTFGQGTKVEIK , give its reported t1/2.
Data returned: 51

Data request: For the binder H2M13022N (antibody, V domains shown, also called H2bM13022N) VH: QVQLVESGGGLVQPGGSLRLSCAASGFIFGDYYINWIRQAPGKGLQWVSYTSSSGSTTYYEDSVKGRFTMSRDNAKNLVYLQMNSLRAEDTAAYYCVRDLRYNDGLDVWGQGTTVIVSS VL: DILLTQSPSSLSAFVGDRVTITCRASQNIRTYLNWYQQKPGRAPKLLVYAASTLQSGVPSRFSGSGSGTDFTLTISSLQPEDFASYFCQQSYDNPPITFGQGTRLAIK , give its reported t1/2.
Data returned: 41
